# assayed-target: thromboxane synthase (Homo sapiens, UniProt P24557)
# Sequence (P24557 whole entry): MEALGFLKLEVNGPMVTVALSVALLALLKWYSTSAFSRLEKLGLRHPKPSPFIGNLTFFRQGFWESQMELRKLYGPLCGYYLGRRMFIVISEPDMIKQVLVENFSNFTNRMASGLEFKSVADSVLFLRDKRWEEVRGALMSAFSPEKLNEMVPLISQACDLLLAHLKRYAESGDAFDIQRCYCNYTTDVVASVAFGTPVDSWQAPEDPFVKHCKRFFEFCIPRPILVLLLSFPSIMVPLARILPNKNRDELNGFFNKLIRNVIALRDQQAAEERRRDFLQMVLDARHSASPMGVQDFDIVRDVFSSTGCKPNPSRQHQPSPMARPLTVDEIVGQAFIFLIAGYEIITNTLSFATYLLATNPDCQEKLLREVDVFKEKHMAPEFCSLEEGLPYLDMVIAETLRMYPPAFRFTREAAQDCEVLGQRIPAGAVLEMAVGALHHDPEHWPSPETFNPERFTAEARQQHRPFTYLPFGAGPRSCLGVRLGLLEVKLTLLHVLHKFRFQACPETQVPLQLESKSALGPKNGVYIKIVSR
# assay-notes: Thromboxane synthase inhibition in vitro (whole human blood, serum TXB2 by radioimmunoassay)
# test-parameters: 30 min at 37 °C
result-type: IC50 (nM)

{"molecule": "O=C(O)CCCC/C=C(\\c1ccc(-c2nc(C(=O)NCCCCC3CCCCC3)co2)cc1)c1cccnc1", "result-type": "IC50", "units-of-measure": "nM", "limit-operator": "=", "reported-measurement": 55}
{"molecule": "O=C(O)CCCC/C=C(/c1ccc(-c2nc(C(=O)NCCCCC3CCCCC3)co2)cc1)c1cccnc1", "result-type": "IC50", "units-of-measure": "nM", "limit-operator": ">", "reported-measurement": 10000}
{"molecule": "O=C(O)CCCC/C=C(\\c1ccc(C2=N[C@H](C(=O)NCCCCC3CCCCC3)CO2)cc1)c1cccnc1", "result-type": "IC50", "units-of-measure": "nM", "limit-operator": "=", "reported-measurement": 82.1}
{"molecule": "O=C(O)CCCC/C=C(\\c1ccc(-c2nc(C(=O)NCCCCOc3ccccc3)co2)cc1)c1cccnc1", "result-type": "IC50", "units-of-measure": "nM", "limit-operator": "=", "reported-measurement": 48.9}
{"molecule": "CC(OCCCNC(=O)c1coc(-c2ccc(/C(=C\\CCCCC(=O)O)c3cccnc3)cc2)n1)C1CCCCC1 (stereo not drawn)", "result-type": "IC50", "units-of-measure": "nM", "limit-operator": "=", "reported-measurement": 11.5}
{"molecule": "O=C(O)CCCC/C=C(/c1ccc(C2=N[C@H](C(=O)NCCCCC3CCCCC3)CO2)cc1)c1cccnc1", "result-type": "IC50", "units-of-measure": "nM", "limit-operator": ">", "reported-measurement": 10000}
